Test system: RIOK2;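 note: KINOMEscan kinase panel screen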
CONDITION NOTES: concentration: 1 μM, replicates: in singlicate; n = 1
MEASUREMENT NAME: %Inh

COMPOUND: Nc1ncc(-c2ccc3nccc(-c4ccncc4)c3c2)cc1S(=O)(=O)N1CCCCC1 [GSK1693850]
%Inh: 89%
//
COMPOUND: O=C1NC(=O)C(c2ccccc2Cl)=C1Nc1cccc(Cl)c1 [SB-342409]
%Inh: 0%
//
COMPOUND: CS(=O)(=O)c1cccc(CNc2nc(Nc3ccc4c(c3)CCC(=O)N4)ncc2C(F)(F)F)c1
%Inh: 0%
//
COMPOUND: Cc1cc(-c2c(-c3ccc(F)cc3)ncn2CCCN2CCOCC2)nc(N)n1 [SB-222517]
%Inh: 0%
//
COMPOUND: CN1CCN(Cc2ccc(NC(=O)Nc3ccc(N(C)c4ccnc(Nc5ccc(CS(C)(=O)=O)cc5)n4)cc3)cc2)CC1.Cl [GW827654]
%Inh: 100%
//
COMPOUND: CC(C)c1nc(-c2cccc(NS(=O)(=O)c3c(F)cccc3F)c2)c(-c2ccnc(Nc3ccc(N4CCOCC4)nc3)n2)s1.Cl [GSK1723980]
%Inh: 0%
//
COMPOUND: Cl.O=C(Nc1ccc(Oc2ccc3[nH]c(NC(=O)c4ccco4)nc3c2)cc1)Nc1cc(C(F)(F)F)ccc1F [GW683134]
%Inh: 7%
//
COMPOUND: Cl.Cl.NC(CNC(=O)c1cc(Br)c(-c2ccnc3[nH]ccc23)s1)c1ccccc1 (stereo not shown) [GSK1322949]
%Inh: 88%
//
COMPOUND: Cl.Cl.NCC(NC(=O)c1cc(-c2cccnc2)c(-c2ccnc3[nH]ccc23)s1)c1ccccc1 (stereo not shown) [GSK1323434]
%Inh: 54%
//
COMPOUND: Cn1cc(-c2cnc(N)c3c(-c4ccc5c(c4)CCN5C(=O)Cc4ccccc4)csc23)cn1 [GSK2593074]
%Inh: 0%

Fill in the blank: the reported %Inh of COc1cccc(C2=C(Nc3cccc(O)c3)C(=O)NC2=O)c1 [SB-390771] is ____. 0%

Query: %Inh; subject: COc1cccc(CC(=O)N2CCc3cc(-c4cn(C)c5ncnc(N)c45)ccc32)c1 [GSK2608899] 20%

Quick one: %Inh for COc1cccc2c(-c3ccncc3)c(-c3ccc(F)cc3)nn12 [GW468513] ? 13%

Tell me the measured %Inh of Cc1ccc(NC(=O)c2cccc(N3CCCCC3)c2)cc1-c1ccc(C(=O)NCC2CC2)cc1 [GSK1917008] , please. 15%

Look at this compound and give its reported %Inh. CN(c1ccc2c(c1)nc(NCc1ccccc1)n2C)c1ccnc(Nc2ccc(CS(C)(=O)=O)cc2)n1.Cl [GW811603] 0%

Record request: %Inh value, item N#Cc1cnc2cc(-c3cnc(CNCCN4CCOCC4)s3)ccc2c1Nc1ccc(Oc2ccccc2)cc1 [GW664114] 0%
